B1: MYBL2 (parent)
chain: VKKSCWTEEEDRIICEAHKVLGNR

variants of: B1; assay: protein stability index of a GFP-peptide fusion (GPS, HEK-293T) (PSI 1-6); higher = more stable; details: c terminus: a fixed tail appended;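 also: lentivirally expressed fusions sorted by FACS into six bins by GFP to DsRed ratio, PSI derived from sequencing read proportions per bin multiplied by bin number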
Lab note: anything with protein stability index at or over 4 counts as 1; the rest go in -1.

[
  {
    "mutation_label": "I13D",
    "class_name": 1
  },
  {
    "mutation_label": "K19H",
    "class_name": -1
  },
  {
    "mutation_label": "E16L",
    "class_name": -1
  },
  {
    "mutation_label": "D11I",
    "class_name": -1
  }
]

Please look at the following variant next.
Could you please find out whether `I14H` has protein stability index that meets 4 or exceeds it?
1
